The reported numbers originate from paper PMC7400437.

# System: Caco2 (human intestinal epithelial cells)
# Protocol: Cytotoxic assay on human cells (resazurin)
# Format: cell-based
# Condition Set: Homo sapiens, Caco-2, 48 h, read-out: Inhibitory Concentration 50 (IC50) on cell viability, Caco2
# IC50 listing for each entry below
Reported Property: IC50 (µM)

molecule=COc1ccc2c(Cc3ccc(CI)cc3)c3[n+](cc2c1OC)CCc1cc2c(cc1-3)OCO2 unit_text=µM relation_sign=> numeric_result=50
molecule=COc1cc(C(=O)Cc2c3[n+](cc4c(OC)c(OC)ccc24)CCc2cc4c(cc2-3)OCO4)cc(OC)c1OC(=O)c1ccccc1 unit_text=µM relation_sign=> numeric_result=50
molecule=COc1ccc2c(CC(=O)c3ccc(OC(=O)c4ccccc4)cc3OC(=O)c3ccccc3)c3[n+](cc2c1OC)CCc1cc2c(cc1-3)OCO2 unit_text=µM relation_sign=> numeric_result=50
molecule=COc1ccc(C(=O)/C=C/c2ccc(Cc3c4[n+](cc5c(OC)c(OC)ccc35)CCc3cc5c(cc3-4)OCO5)cc2)c(O)c1 unit_text=µM relation_sign== numeric_result=10.5
molecule="COc1ccc2c(O)c3[n+](cc2c1OC)CCc1cc2c(cc1-3)OCO2 [Compound 2, 13-hydroxyberberine]" unit_text=µM relation_sign== numeric_result=34.2
molecule=C=Cc1ccc(Cc2c3[n+](cc4c(OC)c(OC)ccc24)CCc2cc4c(cc2-3)OCO4)cc1 unit_text=µM relation_sign== numeric_result=24.8

* * *

# System: Caco2 (human intestinal epithelial cells)
# Protocol: Cytotoxic assay on human cells (resazurin)
# Assay type: cell-based
# Condition Set: Homo sapiens, Caco-2, 48 h, read-out: Inhibitory Concentration 50 (IC50) on cell viability, Caco2
pIC50: −log10 of the molar value.
# pIC50 listing for each entry below
Reported Property: pIC50

compound="COc1ccc2c(Cc3ccc(-c4nc5ccccc5s4)cc3)c3[n+](cc2c1OC)CCc1cc2c(cc1-3)OCO2 [Compound 19]" reported_property=pIC50 relation_sign== numeric_result=4.92
compound="COc1ccc(Cc2c3[n+](cc4c(OC)c(OC)ccc24)CCc2cc4c(cc2-3)OCO4)c(OC)c1OC [Compound 14]" reported_property=pIC50 relation_sign=< numeric_result=4.30
compound="COc1ccc2c(=O)cc(-c3ccc(Cc4c5[n+](cc6c(OC)c(OC)ccc46)CCc4cc6c(cc4-5)OCO6)cc3)oc2c1 [Compound 26]" reported_property=pIC50 relation_sign=< numeric_result=4.30
compound="COc1ccc2cc3[n+](cc2c1OC)CCc1cc2c(cc1-3)OCO2 [Berberine]" reported_property=pIC50 relation_sign== numeric_result=4.67
compound="COc1ccc2c(Cc3ccc(CN)cc3)c3[n+](cc2c1OC)CCc1cc2c(cc1-3)OCO2 [Compound 11, 13-(4-Aminomethylbenzyl)Berberine]" reported_property=pIC50 relation_sign=< numeric_result=4.30
compound="COc1ccc2c(Cc3ccc4c(c3)OCO4)c3[n+](cc2c1OC)CCc1cc2c(cc1-3)OCO2 [Compound 13]" reported_property=pIC50 relation_sign== numeric_result=4.50
compound="COc1ccc2c(Cc3ccc(F)cc3)c3[n+](cc2c1OC)CCc1cc2c(cc1-3)OCO2 [Compound 6, 13-(4-Fluorobenzyl)Berberine]" reported_property=pIC50 relation_sign== numeric_result=4.43
compound="COc1ccc2c(Cc3ccc(/C=C/C(=O)NCCc4ccc(S(N)(=O)=O)cc4)cc3)c3[n+](cc2c1OC)CCc1cc2c(cc1-3)OCO2 [Compound 23]" reported_property=pIC50 relation_sign=< numeric_result=4.30

* * *

# MIC listing for each entry below
# System: A. baumannii
# Protocol: MIC, antimicrobial activity assay
# Format: cell-based, Acinetobacter baumannii (CIP 110431)
# Condition Set: Acinetobacter baumannii; Table 4, Gram-negative
Reported Property: MIC

compound=COc1ccc2c(CC(=O)c3ccc(OC(=O)c4ccccc4)cc3OC(=O)c3ccccc3)c3[n+](cc2c1OC)CCc1cc2c(cc1-3)OCO2 target_of_assay="A. baumannii" reported_property=MIC result="> 100 µM"
compound=COc1ccc2c(Cc3ccc(/C=C/C(=O)NCCc4ccc(S(N)(=O)=O)cc4)cc3)c3[n+](cc2c1OC)CCc1cc2c(cc1-3)OCO2 target_of_assay="A. baumannii" reported_property=MIC result="> 100 µM"
compound=COc1ccc(C(=O)/C=C/c2ccc(Cc3c4[n+](cc5c(OC)c(OC)ccc35)CCc3cc5c(cc3-4)OCO5)cc2)c(O)c1 target_of_assay="A. baumannii" reported_property=MIC result="> 100 µM"

* * *

# MIC listing for each entry below
# Tested on: C. perfringens
# Protocol: microbe, parasite or virus in culture
# Type: cell-based, Clostridium perfringens (ATCC 13124)
# Condition Set: Clostridium perfringens, read-out: MIC C. perfringens
Reported Property: MIC (µM)

compound="COc1ccc2c(=O)cc(-c3ccc(Cc4c5[n+](cc6c(OC)c(OC)ccc46)CCc4cc6c(cc4-5)OCO6)cc3)oc2c1 [Compound 26]" reported_property=MIC relation_sign=> numeric_result=100
compound="COc1ccc(C(=O)/C=C/c2ccc(Cc3c4[n+](cc5c(OC)c(OC)ccc35)CCc3cc5c(cc3-4)OCO5)cc2)c(O)c1 [Compound 25]" reported_property=MIC relation_sign== numeric_result=25
compound="COc1ccc2c(CC(=O)c3ccc(OC(=O)c4ccccc4)cc3OC(=O)c3ccccc3)c3[n+](cc2c1OC)CCc1cc2c(cc1-3)OCO2 [Compound 17]" reported_property=MIC relation_sign== numeric_result=50
compound="COc1ccc2c(Cc3ccc(CI)cc3)c3[n+](cc2c1OC)CCc1cc2c(cc1-3)OCO2 [Compound 8, 13-(4-Iodomethylbenzyl)Berberine]" reported_property=MIC relation_sign== numeric_result=100
compound="COc1cc(C(=O)Cc2c3[n+](cc4c(OC)c(OC)ccc24)CCc2cc4c(cc2-3)OCO4)cc(OC)c1OC(=O)c1ccccc1 [Compound 16]" reported_property=MIC relation_sign== numeric_result=25
compound="COc1ccc2c(Cc3ccc(/C=C/C(=O)NCCc4ccc(S(N)(=O)=O)cc4)cc3)c3[n+](cc2c1OC)CCc1cc2c(cc1-3)OCO2 [Compound 23]" reported_property=MIC relation_sign== numeric_result=50

* * *

These records show MIC for A. baumannii.
Reported Property: MIC

compound=COc1ccc2c(=O)cc(-c3ccc(Cc4c5[n+](cc6c(OC)c(OC)ccc46)CCc4cc6c(cc4-5)OCO6)cc3)oc2c1 result="> 100 µM"
compound=COc1cc(C(=O)Cc2c3[n+](cc4c(OC)c(OC)ccc24)CCc2cc4c(cc2-3)OCO4)cc(OC)c1OC(=O)c1ccccc1 result="> 100 µM"
compound=COc1ccc2c(Cc3ccc(CI)cc3)c3[n+](cc2c1OC)CCc1cc2c(cc1-3)OCO2 result="> 100 µM"

* * *

These records show MIC for L. lactis.
Reported Property: MIC

compound=COc1ccc2c(Cc3ccc(/C=C/C(=O)NCCc4ccc(S(N)(=O)=O)cc4)cc3)c3[n+](cc2c1OC)CCc1cc2c(cc1-3)OCO2 result="6.25 µM"
compound=COc1ccc(C(=O)/C=C/c2ccc(Cc3c4[n+](cc5c(OC)c(OC)ccc35)CCc3cc5c(cc3-4)OCO5)cc2)c(O)c1 result="1.5 to 3.12 µM"
compound=COc1ccc2c(=O)cc(-c3ccc(Cc4c5[n+](cc6c(OC)c(OC)ccc46)CCc4cc6c(cc4-5)OCO6)cc3)oc2c1 result="6.25 to 12.5 µM"
compound=COc1ccc2c(CC(=O)c3ccc(OC(=O)c4ccccc4)cc3OC(=O)c3ccccc3)c3[n+](cc2c1OC)CCc1cc2c(cc1-3)OCO2 result="3.12 to 6.25 µM"
compound=COc1cc(C(=O)Cc2c3[n+](cc4c(OC)c(OC)ccc24)CCc2cc4c(cc2-3)OCO4)cc(OC)c1OC(=O)c1ccccc1 result="6.25 to 12.5 µM"
compound=COc1ccc2c(Cc3ccc(CI)cc3)c3[n+](cc2c1OC)CCc1cc2c(cc1-3)OCO2 result="3.12 to 6.25 µM"

* * *

# System: S. aureus
# Protocol: MIC, antimicrobial activity assay
# Type: cell-based, Staphylococcus aureus (ATCC 6538P)
# Condition Set: Staphylococcus aureus; Table 4, Gram-positive; read-out: MIC S. aureus
Reported Property: MIC (µM)

compound="COc1ccc(C(=O)/C=C/c2ccc(Cc3c4[n+](cc5c(OC)c(OC)ccc35)CCc3cc5c(cc3-4)OCO5)cc2)c(O)c1 [Compound 25]" numeric_result=3.12
compound="COc1ccc2c(=O)cc(-c3ccc(Cc4c5[n+](cc6c(OC)c(OC)ccc46)CCc4cc6c(cc4-5)OCO6)cc3)oc2c1 [Compound 26]" numeric_result=12.5
compound="COc1ccc2c(Cc3ccc(CI)cc3)c3[n+](cc2c1OC)CCc1cc2c(cc1-3)OCO2 [Compound 8, 13-(4-Iodomethylbenzyl)Berberine]" numeric_result=6.25
compound="COc1cc(C(=O)Cc2c3[n+](cc4c(OC)c(OC)ccc24)CCc2cc4c(cc2-3)OCO4)cc(OC)c1OC(=O)c1ccccc1 [Compound 16]" numeric_result=6.25
compound="COc1ccc2c(Cc3ccc(/C=C/C(=O)NCCc4ccc(S(N)(=O)=O)cc4)cc3)c3[n+](cc2c1OC)CCc1cc2c(cc1-3)OCO2 [Compound 23]" numeric_result=6.25
compound="COc1ccc2c(CC(=O)c3ccc(OC(=O)c4ccccc4)cc3OC(=O)c3ccccc3)c3[n+](cc2c1OC)CCc1cc2c(cc1-3)OCO2 [Compound 17]" numeric_result=6.25
